# Target under test: T1, biotinylated ADDL (bADDL) (UniProt P05067 672-713, N-terminal biotin)
# T1 construct: domain: Aβ1-42; Soluble oligomers of Aβ1-42; also called bADDLs; biotinylated high molecular weight ADDL
# Protocol details: BIACORE, bADDL as antigen; column Fab
pKd: −log10 of the molar value.

Binder	pKd
20C2-5A Fab (Fab, V domains shown) VH: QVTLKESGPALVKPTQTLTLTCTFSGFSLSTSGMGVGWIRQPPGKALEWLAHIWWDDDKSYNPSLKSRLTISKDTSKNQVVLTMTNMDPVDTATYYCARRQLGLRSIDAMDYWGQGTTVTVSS VL: DVVMTQSPLSLPVTPGEPASISCRSSQSILHSNGNTYLEWYLQKPGQSPQLLIYKVSNRFSGVPDRFSGSGSGTDFTLKISRVEAEDVGVYYCFQSSFVPLTFGQGTKLEIKR	7.39
Mouse-20C2 Fab (Fab, V domains shown, Value in the Fab column of the row Mouse-20C2; also called murine 20C2) VH: QVTLKESGPGILKPSQTLSLTCSLSGFSLSTSGMGVGWFRQPSGKGLEWLAHIWWDDDKSYNPSLKSRLTISKYTSRNQVFLTITSVDTADTATYYCARRQLGLRSIDAMDYWGQGTSVTVSS VL: DVLMTQTPLSLPVSLGDQASISCRSSQSILHSNGNTYLEWYLQKPGQSPKLLIYKVSNRFSGVPDRFSGSGSGTDFTLKISRVEAEDLGVYYCFQGSLVPLTFGAGTKLELK	7.21
20C2-6A Fab (Fab, V domains shown) VH: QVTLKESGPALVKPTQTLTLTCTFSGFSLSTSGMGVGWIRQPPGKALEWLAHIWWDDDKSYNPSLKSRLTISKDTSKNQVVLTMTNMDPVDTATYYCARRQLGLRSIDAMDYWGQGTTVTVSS VL: DVVMTQSPLSLPVTPGEPASISCRSSQSILHSNGNTYLEWYLQKPGQSPQLLIYKVSNRFSGVPDRFSGSGSGTDFTLKISRVEAEDVGVYYCFQSSRVPLTFGQGTKLEIKR	7.38
20C2-2A Fab (Fab, V domains shown) VH: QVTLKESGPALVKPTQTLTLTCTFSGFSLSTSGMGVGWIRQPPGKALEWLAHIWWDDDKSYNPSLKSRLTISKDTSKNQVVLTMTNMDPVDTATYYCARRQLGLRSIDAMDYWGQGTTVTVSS VL: DVVMTQSPLSLPVTPGEPASISCRSSQSILHSNGNTYLEWYLQKPGQSPQLLIYKVSNRFSGVPDRFSGSGSGTDFTLKISRVEAEDVGVYYCFQATRVPLTFGQGTKLEIKR	7.55
